Attribution: the MegaScale stability set (Tsuboyama et al. 2023)

B1: EHEE_rd2_1257 (parent)
chain: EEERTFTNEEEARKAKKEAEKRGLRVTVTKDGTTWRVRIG

- Variants of: B1
- Assay name: folding stability dG (cDNA display proteolysis); higher = more stable
- Particulars: PBS, room temperature
Kindly return Fulfilled if reported folding stability dG is no lower than 2 kcal/mol; return Not fulfilled if it is lower.

- Mutant code: "A12V"
  Label class: "Not fulfilled"
- Mutant code: "R36E"
  Label class: "Not fulfilled"
- Mutant code: "T33A"
  Label class: "Fulfilled"
- Mutant code: "A15V"
  Label class: "Not fulfilled"
- Mutant code: "T29M"
  Label class: "Not fulfilled"
- Mutant code: "A15E"
  Label class: "Not fulfilled"
- Mutant code: "T7W"
  Label class: "Not fulfilled"
- Mutant code: "T27Q"
  Label class: "Not fulfilled"
- Mutant code: "T34F"
  Label class: "Fulfilled"
- Mutant code: "E20A"
  Label class: "Not fulfilled"
- Mutant code: "L24H"
  Label class: "Not fulfilled"
- Mutant code: "R38W"
  Label class: "Fulfilled"
- Mutant code: "R4S"
  Label class: "Not fulfilled"
- Mutant code: "T34G"
  Label class: "Not fulfilled"
- Mutant code: "A15H"
  Label class: "Not fulfilled"
- Mutant code: "R38V"
  Label class: "Fulfilled"
- Mutant code: "V26P"
  Label class: "Not fulfilled"
- Mutant code: "W35H"
  Label class: "Not fulfilled"
- Mutant code: "E9Q"
  Label class: "Not fulfilled"
- Mutant code: "K14N"
  Label class: "Fulfilled"
- Mutant code: "K21G"
  Label class: "Fulfilled"
